# Tested on: Vero (ATCC CCL-81) cell line
# methodDescription: Cytotoxicity MTT assay (CC50)
# testParameters: Vero cells; compound 25 µM
API: label(entry) gives Condition met if the entry's Cell viability as percentage of cell control (mean absorbance / CELL) is strictly smaller than 50; on equality or larger values it gives Condition not met.

compoundStructureString: COc1cccc2nc(C(=O)c3ccccc3NS(=O)(=O)c3ccc(F)c(C)c3)[nH]c12
discreteLabel: Condition met
--
compoundStructureString: Cc1ccc(S(=O)(=O)Nc2ccccc2C(=O)Nc2nc3ccccc3[nH]2)cc1
discreteLabel: Condition not met
--
compoundStructureString: O=C(Nc1nc2cnccc2[nH]1)c1ccccc1NS(=O)(=O)c1ccc(Cl)cc1
discreteLabel: Condition not met
--
compoundStructureString: O=C(Nc1nc2cccnc2[nH]1)c1ccccc1NS(=O)(=O)c1ccc(F)cc1
discreteLabel: Condition not met
--
compoundStructureString: Cc1cc(C(=O)c2ccccc2NS(=O)(=O)c2ccc(F)cc2)nn1-c1ccccc1
discreteLabel: Condition met
--
compoundStructureString: O=C(Nc1nc2cccc(Cl)c2[nH]1)c1ccccc1NS(=O)(=O)c1ccc(F)cc1
discreteLabel: Condition met
--
compoundStructureString: O=C(Nc1nc2cnccc2[nH]1)c1ccccc1NS(=O)(=O)c1ccc(F)cc1
discreteLabel: Condition not met
--
compoundStructureString: COc1cccc2sc(NC(=O)c3ccccc3CS(=O)(=O)c3ccccc3)nc12
discreteLabel: Condition not met
--
compoundStructureString: O=C(Nc1nc2ccccc2[nH]1)c1ccccc1NS(=O)(=O)c1ccc(Cl)cc1
discreteLabel: Condition not met

---

# % ZIKV NS2B/NS3pro Inhibition [Enzyme] = 2 nM values compiled below
# systemTested: ZIKV NS2B-NS3pro (Zika virus, UniProt A0A024B7W1, C1582S/C1645S/R1467A/R1531G)
# methodDescription: ZIKV NS2B-NS3pro inhibitory assay with fluorogenic substrate Bz-Nle-Lys-Lys-Arg-AMC
# Type: biochemical
# testParameters: compound 25 µM (close to IC50); CHAPS 1 mM; enzyme 2 nM
measureName: % ZIKV NS2B/NS3pro Inhibition [Enzyme] = 2 nM

compoundStructureString: Cc1ccc(S(=O)(=O)Nc2ccccc2C(=O)Nc2nc3ccccc3[nH]2)cc1
systemTested: ZIKV NS2B-NS3pro (Zika virus, UniProt A0A024B7W1, C1582S/C1645S/R1467A/R1531G)
value: 27 ± 6%

compoundStructureString: O=C(Nc1nc2cnccc2[nH]1)c1ccccc1NS(=O)(=O)c1ccc(Cl)cc1
systemTested: ZIKV NS2B-NS3pro (Zika virus, UniProt A0A024B7W1, C1582S/C1645S/R1467A/R1531G)
value: 29 ± 8%

compoundStructureString: O=C(Nc1nc2cccnc2[nH]1)c1ccccc1NS(=O)(=O)c1ccc(F)cc1
systemTested: ZIKV NS2B-NS3pro (Zika virus, UniProt A0A024B7W1, C1582S/C1645S/R1467A/R1531G)
value: 28 ± 7%

compoundStructureString: O=C(Nc1nc2ccccc2[nH]1)c1ccccc1NS(=O)(=O)c1ccc(Cl)cc1
systemTested: ZIKV NS2B-NS3pro (Zika virus, UniProt A0A024B7W1, C1582S/C1645S/R1467A/R1531G)
value: 66 ± 21%

compoundStructureString: O=C(Nc1nc2cccnc2[nH]1)c1ccccc1NS(=O)(=O)c1ccc(Cl)cc1
systemTested: ZIKV NS2B-NS3pro (Zika virus, UniProt A0A024B7W1, C1582S/C1645S/R1467A/R1531G)
value: 26 ± 7%

compoundStructureString: Cc1cc(C(=O)c2ccccc2NS(=O)(=O)c2ccc(F)cc2)nn1-c1ccccc1
systemTested: ZIKV NS2B-NS3pro (Zika virus, UniProt A0A024B7W1, C1582S/C1645S/R1467A/R1531G)
value: 26 ± 10%
